pKd for assorted binders
molecular target: T1, recombinant human TfR1 (transferrin receptor protein 1) (human, UniProt P02786 89-760); test: Biacore, d0; TfR1 species not stated
T1 construct: Recombinant protein in SPR and ELISA; they were assigned to this molecule; also called hTfR1; huTfR1
T1 sequence (P02786 89-760 limits assumed): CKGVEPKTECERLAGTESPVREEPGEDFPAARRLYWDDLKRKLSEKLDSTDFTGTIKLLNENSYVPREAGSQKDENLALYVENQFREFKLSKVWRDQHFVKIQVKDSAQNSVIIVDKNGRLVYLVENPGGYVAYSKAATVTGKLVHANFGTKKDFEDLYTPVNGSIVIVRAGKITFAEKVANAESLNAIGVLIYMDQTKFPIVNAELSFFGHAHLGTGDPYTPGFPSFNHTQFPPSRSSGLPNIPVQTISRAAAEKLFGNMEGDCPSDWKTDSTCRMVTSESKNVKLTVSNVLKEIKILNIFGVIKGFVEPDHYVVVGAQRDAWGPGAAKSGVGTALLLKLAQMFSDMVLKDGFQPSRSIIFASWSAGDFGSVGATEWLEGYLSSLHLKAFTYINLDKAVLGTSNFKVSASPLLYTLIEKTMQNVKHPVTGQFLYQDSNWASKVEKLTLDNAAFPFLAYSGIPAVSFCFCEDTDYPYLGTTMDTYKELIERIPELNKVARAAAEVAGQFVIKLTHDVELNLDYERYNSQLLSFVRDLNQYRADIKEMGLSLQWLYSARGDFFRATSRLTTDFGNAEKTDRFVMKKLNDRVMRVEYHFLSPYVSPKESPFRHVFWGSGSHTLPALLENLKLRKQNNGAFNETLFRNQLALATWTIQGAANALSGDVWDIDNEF
pKd: −log10 of the molar value.
observed_property: pKd

1) humanized anti-TfR Fab 5H12 VH5 (C33D)/Vκ4 (Fab, V domains shown, also called 5H12 (VH5-C33D/Vk4)) VH: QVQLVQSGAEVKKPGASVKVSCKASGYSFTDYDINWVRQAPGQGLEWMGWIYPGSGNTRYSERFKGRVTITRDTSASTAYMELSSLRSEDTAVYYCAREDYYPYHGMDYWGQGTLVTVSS VL: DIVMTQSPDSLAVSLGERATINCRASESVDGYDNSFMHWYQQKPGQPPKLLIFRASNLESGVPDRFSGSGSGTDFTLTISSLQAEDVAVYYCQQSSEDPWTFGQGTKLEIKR : 9.00
2) humanized anti-TfR Fab 5H12 VH5 (C33Y)/Vκ3 (Fab, V domains shown, also called 5H12 (VH5-C33Y/Vk3)) VH: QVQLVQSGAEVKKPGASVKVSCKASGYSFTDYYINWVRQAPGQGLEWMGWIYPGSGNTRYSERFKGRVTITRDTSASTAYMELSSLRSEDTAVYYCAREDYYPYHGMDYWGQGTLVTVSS VL: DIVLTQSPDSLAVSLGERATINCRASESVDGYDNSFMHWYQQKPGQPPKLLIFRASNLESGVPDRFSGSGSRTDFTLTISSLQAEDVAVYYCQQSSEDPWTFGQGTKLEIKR : 9.20
3) humanized anti-TfR Fab 3M12 VH3/Vκ2 (Fab, V domains shown, also called 3M12 (VH3/Vk2)) VH: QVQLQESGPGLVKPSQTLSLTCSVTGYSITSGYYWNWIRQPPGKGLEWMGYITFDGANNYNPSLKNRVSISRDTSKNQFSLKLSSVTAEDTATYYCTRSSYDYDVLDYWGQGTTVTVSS VL: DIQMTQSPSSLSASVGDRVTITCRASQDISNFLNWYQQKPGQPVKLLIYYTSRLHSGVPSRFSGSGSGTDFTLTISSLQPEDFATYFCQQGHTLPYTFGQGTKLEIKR : 9.40
4) humanized anti-TfR Fab 3M12 VH3/Vκ3 (Fab, V domains shown, also called 3M12 (VH3/Vk3)) VH: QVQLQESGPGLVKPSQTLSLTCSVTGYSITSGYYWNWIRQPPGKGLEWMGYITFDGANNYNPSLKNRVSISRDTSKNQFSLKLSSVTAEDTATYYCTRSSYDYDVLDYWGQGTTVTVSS VL: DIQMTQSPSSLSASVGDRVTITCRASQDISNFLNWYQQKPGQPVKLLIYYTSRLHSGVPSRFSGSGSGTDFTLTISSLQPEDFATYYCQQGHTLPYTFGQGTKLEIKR : 9.46
5) humanized anti-TfR Fab 3A4 VH3/Vκ4 (Fab, V domains shown, also called 3A4 (VH3/Vk4)) VH: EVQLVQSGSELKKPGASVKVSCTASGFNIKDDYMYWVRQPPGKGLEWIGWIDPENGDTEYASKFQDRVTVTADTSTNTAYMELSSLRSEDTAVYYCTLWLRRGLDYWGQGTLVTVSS VL: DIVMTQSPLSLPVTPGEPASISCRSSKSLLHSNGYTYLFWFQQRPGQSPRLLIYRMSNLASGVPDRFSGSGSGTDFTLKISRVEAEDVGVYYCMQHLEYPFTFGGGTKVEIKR : 8.82
